Reference source: PubChem BioAssay (NCI)

System: T-47D breast
Assay: NCI tumour cell line growth inhibition, 48 h; in the data active = GI50 below about 0.43 µM; inactive = the rest
Your response should consist of one outcome taken from active, inactive

Hi, do you know how O=C(Nc1cccc(-n2ccc3c(NC(=O)c4ccccc4)nccc32)c1)c1cc(N2CCOCC2)cc(C(F)(F)F)c1 came out in this test?
inactive

New cases:
Could you please tell me the result logged for Nc1ccc(-n2c(=O)oc3ccc(Cl)cc3c2=O)c(Cl)c1 in this assay?
active

Query: recorded result category for Cc1cc2nc3c4cccc(O)c4n(CCN(C)C)c3nc2cc1C in this test
inactive

Fill in: this test's call for COc1ccc(/C=C\c2cc(OC)c(OC)c(OC)c2)cc1OCC(=O)Nc1nc2ccc(OC(F)(F)F)cc2s1 is ___
inactive

What outcome does the record of this test show for COc1ccc(-c2ccccc2)cc1-c1c(Nc2cc(Cl)cc(Cl)c2O)c(=O)c1=O ?
inactive

Fill in: this test's call for CNCCOC(=O)/C=C1/CCC2C(C(O)CC3C(C)(C(=O)OC)CCCC23C)C1C (stereo not drawn) is ___
active

----------
Test system: HCT-15 colon
Assay: NCI tumour cell line growth inhibition, 48 h
outcome-measure: TGI

Study these solved cases before continuing.
For COc1ccc2c(c1)-c1nn(CCN(C)C)c3ccc(C(=O)NCCCN(C)CCCNC(=O)c4ccc5c6c(nn5CCN(C)C)-c5cc(OC)ccc5Nc46)c(c13)N2 , what is its reported TGI?
10.9 µM

Any idea what its TGI is? The molecule is CC(=O)NC1=C(NCc2ccc(Cl)cc2)C(=O)c2ccccc2C1=O
11.6 µM

// returns reported TGI for input Nc1ccc(-n2c(=O)oc3ccc(Cl)cc3c2=O)c(Cl)c1
21.6 µM

Requested read-out: TGI. Entry: COc1ccc(-c2nc3sc4c(c3c(=O)[nH]2)CCCC4)c2ccccc12
> 100 µM

I am curious: what TGI value has been reported for COc1ccc(/C=C2\CN(C)Cc3c2[nH]c(=O)c(C#N)c3-c2ccc(OC)cc2)cc1 ?
> 100 µM

Given the entry COc1ccc2c(c1)C(=O)c1c-2n(CCCN2CCOCC2)c(=O)c2cc([N+](=O)[O-])ccc12 , report its measured TGI.
13.3 µM

Could you tell me which TGI is on file for Clc1cc(Cl)cc(Nc2nc3ccccc3nc2-c2cccs2)c1 ?
> 100 µM

What does the record list as TGI for CC(=O)O[C@H]1CC[C@@]2(C)C(=CC[C@@H]3C2CC[C@]2(C)Nc4[nH]ncc4CC32)C1 (stereo partly specified) ?
32.8 µM

// lookup TGI for CCCCCCN1CCN(Cc2ccc(N(CC)CC)cc2)C(=O)C1=O
> 100 µM

Look up TGI: COC(=O)c1ccccc1CC(Cc1ccccc1)C(=O)OC (stereo unspecified)
> 100 µM

Record TGI for all entries; do not skip any.
1. Nc1nc(SCCC/C=C/I)nc2c1ncn2C1OC(CO)C(O)C1O (stereo unspecified)
2. O=C(O)C1SCCS1
3. COc1ccc(-n2c(C)nc3c(c(C)nn3-c3ccccc3)c2=O)cc1
4. Cc1c(F)c(N)c2c(=O)cc(-c3ccc(NC(=O)C(N)CCCN=C(N)N)c(F)c3)oc2c1F (stereo unspecified)
5. COc1ccc2c(c1)CC[C@@H]1[C@@H]2CC[C@]2(C)C(=O)/C(=C/c3cc(OC)c(OC)c(OC)c3)C[C@@H]12

["> 202 µM", "> 100 µM", "> 100 µM", "> 100 µM", "> 100 µM"]

I have 6 molecules here; please give me TGI for each one.
1. CN(CCN(C)C(=O)CCOS(C)(=O)=O)C(=O)CCOS(C)(=O)=O
2. Cc1c(O)c(=O)ccn1CCO
3. COc1ccc2c(c1)-c1oc3ccccc3c(=O)c1CO2
4. Oc1ccc(CN(Cc2ccc(C(F)(F)F)cc2)Cc2ccc(O)c3ncccc23)c2cccnc12
5. O=C(NC1(C(=O)O)CC1c1ccccc1)c1ccccc1 (stereo unspecified)
6. O=C1C[C@H](c2ccccc2)C2(C(=O)c3ccccc3C2=O)[C@H](c2ccccc2)C1

1. > 100 µM
2. > 100 µM
3. > 100 µM
4. > 100 µM
5. > 100 µM
6. > 100 µM
